- target: T1, SCRIB-3/4 (MBP fusion of the third of the four PDZ domains of SCRIB) (human, UniProt Q14160-1 997-1093)
- T1 construct: also called MBP-PDZ analyte SCRIB-3/4; source: E. coli BL21 DE3, purified (amylose column, Superdex 75 gel filtration)
- T1 sequence (looked up): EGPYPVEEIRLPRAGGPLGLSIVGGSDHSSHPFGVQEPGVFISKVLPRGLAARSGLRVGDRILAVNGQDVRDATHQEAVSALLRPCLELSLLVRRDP
- protocol details: SPR
- condition summary: both partners purified
Ends that are not written are not given here. * marks the point of attachment. Biotin = O=C1N[C@H]2[C@H](CS[C@H]2CCCCC(=O)*)N1
quantity kind: pKd
// pKd here means minus log10 of the molar concentration (mol/L)

Data request: Recorded pKd for Biotin-GSGAGICTIV (also called TTC24 short; source: synthetic peptide (JPT Peptide Technologies)) [TTC24_05 (short peptide of Tetratricopeptide repeat protein 24: GSGAG and the last five residues)] , please?
Data returned: 3.62

Data request: Now this one: Biotin-GGWVEKETYY (also called ATP1A1 long; source: synthetic peptide (JPT Peptide Technologies))
Data returned: 4.06

Data request: Now this one: Biotin-GSGAGKETRV (also called CYSLTR2 short; source: synthetic peptide (JPT Peptide Technologies)) [CYSLTR2_05 (short peptide of Cysteinyl leukotriene receptor 2: GSGAG and the last five residues)]
Data returned: 3.99

Data request: Now this one: Biotin-NRVDSKETEC (also called ADAM17 long; source: synthetic peptide (JPT Peptide Technologies))
Data returned: 4.10
